System: MCF-7 breast carcinoma
Test: Cytotoxicity assay (monolayer), MCF-7;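 also: cells treated 72 h with 6-8 compound doses versus DMSO vehicle controls, EC50 fitted by 4-parameter dose-response curves, averaged across all tests and lots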
Type: cell-based
Details: MCF7, ML (monolayer); read-out: MCF7 (EC50 Ave) ML
Primed or numbered codes have the meaning given here. * marks the point of attachment. 10Ca‑PXL = paclitaxel conjugated at C10 via a carbamate; PEG(11) = PEG(11) linker; 3Am = not defined here; PEG(13) = PEG13 linker; Piv = CC(C)(C)C(=O)*; VBL = vinblastine
parameter_measured: EC50

substance	result
CBz-GRPRTSSFAE(Bzl)G-3Am-VBL	20 to 100 nM
H-GIYWHHY-PEG(11)-3Am-VBL (H-GIYWHHY-{PEG(11)-3Am-VBL}; reading uncertain)	> 100 nM
BOC-GIYWHHY-PEG(29)-3Am-VBL (N-BOC; PEG(29) linker; vinblastine conjugate)	> 100 nM

q: Quote EC50 with test system MCF-7 breast carcinoma for Pv-EYIYGSFR-PEG(13)-10Ca-PXL (Piv-EYIYGSFR-{PEG(13)-10Ca‑PXL})
a: > 100 nM

q: Quote EC50 with test system MCF-7 breast carcinoma for Ac-RPRTSSF-PEG(11)-3Am-VBL (N-acetyl; PEG(11) linker; vinblastine conjugate)
a: 20 to 100 nM

----------
Tested on: HUVEC
Assay: Cytotoxicity assay (monolayer), HUVEC
Type: cell-based
Settings: ML (monolayer), read-out: HUVEC (EC50 Ave) ML
pEC50: −log10 of the molar value.
Let's look at some compounds and their measured pEC50.

Known results for compounds:
compound	pEC50
CC[C@H](C)[C@H](NC(=O)[C@H](Cc1ccc(O)cc1)NC(=O)C(C)(C)C)C(=O)N[C@@H](Cc1ccc(O)cc1)C(=O)NCC(=O)N[C@@H](CO)C(=O)N[C@@H](Cc1ccccc1)C(=O)N[C@@H](CCCNC(=N)N)C(=O)NCCCOCCOCCOCCCNC(=O)O[C@H]1C(=O)[C@@]2(C)[C@H]([C@H](OC(=O)c3ccccc3)[C@]3(O)C[C@H](OC(=O)[C@H](O)[C@@H](NC(=O)c4ccccc4)c4ccccc4)C(C)=C1C3(C)C)[C@]1(OC(C)=O)CO[C@@H]1C[C@@H]2O [Pv-YIYGSFR-PEG(13)-10Ca-PXL]	< 7.00
CC[C@]1(O)C[C@@H]2CN(CCc3c([nH]c4ccccc34)[C@@](C(=O)OC)(c3cc4c(cc3OC)N(C)[C@H]3[C@@](O)(C(=O)NCCCCCCCCCCCCNC(=O)OC(C)(C)C)[C@H](O)[C@]5(CC)C=CCN6CC[C@]43[C@@H]65)C2)C1	> 7.70

Consider the additional compound presented here.
q: Quote pEC50 with test system HUVEC for CC[C@]1(O)C[C@@H]2CN(CCc3c([nH]c4ccccc34)[C@@](C(=O)OC)(c3cc4c(cc3OC)N(C)[C@H]3[C@@](O)(C(=O)NCCCCCCNC(=O)OC(C)(C)C)[C@H](O)[C@]5(CC)C=CCN6CC[C@]43[C@@H]65)C2)C1
a: > 7.70

----------
Test system: HT-29 colorectal carcinoma
Assay: Cytotoxicity assay (monolayer), HT-29
Type: cell-based
Details: HT29, ML (monolayer); read-out: HT29 (EC50 Ave) ML
pEC50: −log10 of the molar value.
parameter_measured: pEC50

Known results for compounds:
compound	pEC50
CC[C@]1(O)C[C@@H]2CN(CCc3c([nH]c4ccccc34)[C@@](C(=O)OC)(c3cc4c(cc3OC)N(C)[C@H]3[C@@](O)(C(=O)NN)[C@H](O)[C@]5(CC)C=CCN6CC[C@]43[C@@H]65)C2)C1 [Desacetylvinblastine monohydrazine]	> 7.70
CC(=O)O[C@@]12CO[C@@H]1C[C@H](O)[C@@]1(C)C(=O)[C@H](OC(=O)CCCCCN)C3=C(C)[C@@H](OC(=O)[C@H](O)[C@@H](NC(=O)c4ccccc4)c4ccccc4)C[C@@](O)([C@@H](OC(=O)c4ccccc4)[C@H]21)C3(C)C [PXL-10Es-ALK(5)-NH2]	> 7.70
CC(=O)O[C@@]12CO[C@@H]1C[C@H](O)[C@@]1(C)C(=O)[C@H](O)C3=C(C)[C@@H](OC(=O)[C@H](O)[C@@H](NC(=O)c4ccccc4)c4ccccc4)C[C@@](O)([C@@H](OC(=O)c4ccccc4)[C@H]21)C3(C)C [10 Deacetyl Taxol]	> 7.70

Consider the additional compound presented here.
q: Report pEC50 for CC[C@]1(O)C[C@@H]2CN(CCc3c([nH]c4ccccc34)[C@@](C(=O)OC)(c3cc4c(cc3OC)N(C)[C@H]3[C@@](O)(C(=O)NCCCCCCCCCCCCNC(=O)OC(C)(C)C)[C@H](O)[C@]5(CC)C=CCN6CC[C@]43[C@@H]65)C2)C1 [VBL-3Am-ALK(12)-NH(B)]
a: 6.00 to 7.00
